# System: OVCAR-8 ovarian
# Experiment summary: NCI-60 one-dose screen, 48 h
# Run conditions: 10 µM unless noted
# Description: Growth inhibition of the OVCAR-8 human tumor cell line is measured as a screen for anti-cancer activity. Cells are grown in 96 well plates and exposed to the test compound for 48 hours. Compounds are tested at a single concentration, which is 10^-5 M for most compounds. The reported endpoint is percent growth (GI% or GIPRCNT), where numbers from 0 - 100% represent growth inhibition, and numbers from -100% - 0 represent cell death. For example, a value of 40 represents 60% growth inhibition. […]
About 83,000 compounds went through this panel and 20% of them were active in at least one assay; those are over-represented in the sample as a whole. Active and inactive are the calls of the source. The calls were made as follows: active = growth percent below 10; inactive = the rest.
Outcomes: Y (active), N (inactive)

Compound | Tested system | Label
O=C(/C=C/CN1CCOCC1)Nc1cc2c(Nc3ccc(F)c(Cl)c3F)ncnc2cc1OCCOC(F)F | OVCAR-8 ovarian | N
CCC(C)NCC(=O)O (centres undefined) | OVCAR-8 ovarian | N
O=C1CCCCN1CCCCC#Cc1ccccc1C#Cc1ccc([N+](=O)[O-])cc1 | OVCAR-8 ovarian | N
CCCn1c(=S)sc2c(Cl)nc(C)nc21 | OVCAR-8 ovarian | N
NS(=O)(=O)c1ccc(CN2C(=O)c3cccc4cccc(c34)C2=O)cc1 | OVCAR-8 ovarian | N
CCC1=C[C@@H]2CN(C1)Cc1c([nH]c3ccccc13)[C@@](C(=O)OC)(c1cc3c(cc1OC)N(C=O)[C@H]1[C@@](O)(C(=O)OC)[C@H](OC(C)=O)[C@]4(CC)[C@@H]5C[C@@H]5CN5CC[C@]31[C@@H]54)C2 | OVCAR-8 ovarian | Y
COc1cccc(-c2nc3sccn3c2-c2ccnc(NCCCNS(=O)(=O)c3ccccc3)n2)c1 | OVCAR-8 ovarian | N
COc1cc(/C=C2\CCCC3=C2N=C2SC(C)=NN2C3c2cc(OC)c(OC)c(OC)c2)cc(OC)c1OC (centres undefined) | OVCAR-8 ovarian | Y
Clc1ccc(-c2nc(-c3ccco3)cn3ccnc23)cc1 | OVCAR-8 ovarian | N
CCn1cc(C(=O)O)c(=O)c2cc(F)c(N3CCN(S(=O)(=O)c4c(C)cc(C)cc4C)CC3)cc21 | OVCAR-8 ovarian | N
Cc1cc(NC(=O)COC(=O)c2sc3cc(F)ccc3c2Cl)no1 | OVCAR-8 ovarian | N
CC(=O)OC[Si](C)(C)c1ccccc1 | OVCAR-8 ovarian | N
COc1cc(-c2nc(-c3nc4ccccc4[nH]3)cc3c2[nH]c2ccccc23)cc(OC)c1OC | OVCAR-8 ovarian | N
COc1ccc(OC)c(-c2ccc(-c3ccccc3N)c3[nH]c4ccccc4c23)c1 | OVCAR-8 ovarian | N

----------
Item-by-item account of growth
# Test system: ACHN renal
# Experiment summary: NCI-60 one-dose screen, 48 h (100 = growth as untreated, 0 = no growth, -100 = all killed)
# Run conditions: 10 µM unless noted
Compounds without any hit were thinned out: in the full panel of roughly 83,000, 20% have a hit.

Structure | Units symbol | growth
c1cc(-c2ccc3c(c2)OCO3)n2nccc2n1 | % | 98.2
O=C(C[N+](=O)[O-])c1ccc(Cl)cc1 | % | 111
C=CCN=C1NC(=O)/C(=C/c2cc(C(C)(C)C)c(O)c(C(C)(C)C)c2)S1 | % | 87
COc1cccc2nc(Nc3ccc(NC(=O)c4ccc5ncccc5c4)cc3)ccc12 | % | 92.8
CCN(CC)P(=O)(N(CC)CC)N(CCCSC/C=C(\C)CC/C=C(\C)CCC=C(C)C)CCCN1CCN(C)CC1 | % | 119
COc1cccc(/C=C/C(=O)c2sc(Nc3ccc(O)cc3)nc2C)c1 | % | 98.1
